- experiment: Dissolution test of poorly-soluble substances using 2nd fluid for disintegration test (pH 6.8) of the Japanese Pharmacopoeia
- Type: physicochemical
- run parameters: 2nd fluid for disintegration test; elution time 10 min
measured attribute: Dissolved amount (µg/mL)

Examples from the recorded data:
[[record]]
compound = "CC(=O)O[C@]1(C(C)=O)CC[C@H]2[C@@H]3C=C(Cl)C4=CC(=O)CC[C@]4(C)[C@H]3CC[C@@]21C [Comparative Example 3-2, Chlormadinone acetate]"
measured_attribute = "Dissolved amount"
numeric_value = 1.8

[[record]]
compound = "CC(C)(Sc1cc(C(C)(C)C)c(O)c(C(C)(C)C)c1)Sc1cc(C(C)(C)C)c(O)c(C(C)(C)C)c1"
measured_attribute = "Dissolved amount"
numeric_value = 19.9

[[record]]
compound = "COc1ccc2c(c1)c(CC(=O)O)c(C)n2C(=O)c1ccc(Cl)cc1"
measured_attribute = "Dissolved amount"
numeric_value = 693.7

[[record]]
compound = "CC1(C)[C@@H](O[C@H]2O[C@H](C(=O)O)[C@@H](O)[C@H](O)[C@H]2O[C@@H]2O[C@H](C(=O)O)[C@@H](O)[C@H](O)[C@H]2O)CC[C@]2(C)[C@H]3C(=O)C=C4[C@@H]5C[C@@](C)(C(=O)O)CC[C@]5(C)CC[C@@]4(C)[C@]3(C)CC[C@@H]12 [Comparative Example 16, Ammonium Glycyrrhizinate]"
measured_attribute = "Dissolved amount"
numeric_value = 9096.3


[P] O=C(Nc1ccc(Cl)cc1)Nc1ccc(Cl)c(Cl)c1 [10-1, Trichlorocarbanilide]
[Q] CC[C@H]1OC(=O)[C@H](C)[C@@H](O[C@H]2C[C@@](C)(OC)[C@@H](O)[C@H](C)O2)[C@H](C)[C@@H](O[C@@H]2O[C@H](C)C[C@H](N(C)C)[C@H]2O)[C@](C)(O)C[C@@H](C)C(=O)[C@H](C)[C@@H](O)[C@]1(C)O
Query: Given P and Q , report the one with the higher recorded Dissolved amount. Returns: label corresponding to the selected item.
Reply: Q
(Q: 4984.2 µg/mL, P: 0.6 µg/mL)

----------
- experiment: Dissolution test of poorly-soluble substances using 2nd fluid for disintegration test (pH 6.8) of the Japanese Pharmacopoeia
- Assay type: physicochemical
- run parameters: 2nd fluid for disintegration test; elution time 3 min
measured attribute: Dissolved amount (µg/mL)

[a] CN/C(=N/CCSCc1nc[nH]c1C)NC#N
[b] O=C1NC(=O)C(c2ccccc2)(c2ccccc2)N1
[c] COc1ccc2c(c1)c(CC(=O)O)c(C)n2C(=O)c1ccc(Cl)cc1
Query: Sort the entries above numerically by Dissolved amount, high end first. Rank the items, then write their labels in that order.
Reply: a, c, b

----------
- experiment: Dissolution test of poorly-soluble substances using distilled water
- Type: physicochemical
- run parameters: after dissolution test for 360 minutes; distilled water; 37±0.5° C.
measured attribute: Dissolved amount (µg/mL)

[A] CC(C)(Sc1cc(C(C)(C)C)c(O)c(C(C)(C)C)c1)Sc1cc(C(C)(C)C)c(O)c(C(C)(C)C)c1
[B] COc1ccc2[nH]c([S+]([O-])Cc3ncc(C)c(OC)c3C)nc2c1 (stereo not shown)
[C] Nc1nc(N)c2nc(-c3ccccc3)c(N)nc2n1
[D] CC(=O)O[C@]1(C(C)=O)CC[C@H]2[C@@H]3C=C(Cl)C4=CC(=O)CC[C@]4(C)[C@H]3CC[C@@]21C [Comparative Example 3-2, Chlormadinone acetate]
Query: Sort the entries above numerically by Dissolved amount, high end first. Rank the items, then write their labels in that order.
Reply: B, C, A, D
(B: 141.6 µg/mL, C: 21.3 µg/mL, A: 9.7 µg/mL, D: 1.2 µg/mL)

----------
- experiment: Dissolution test of poorly-soluble substances using 2nd fluid for disintegration test (pH 6.8) of the Japanese Pharmacopoeia
- Assay type: physicochemical
- run parameters: 2nd fluid for disintegration test; elution time 120 min
measured attribute: Dissolved amount (µg/mL)

[[record]]
molecule = "CC[C@H]1OC(=O)[C@H](C)[C@@H](O[C@H]2C[C@@](C)(OC)[C@@H](O)[C@H](C)O2)[C@H](C)[C@@H](O[C@@H]2O[C@H](C)C[C@H](N(C)C)[C@H]2O)[C@](C)(O)C[C@@H](C)C(=O)[C@H](C)[C@@H](O)[C@]1(C)O"
numeric_value = 5904.1

[[record]]
molecule = "COc1ccc2c(c1)c(CC(=O)O)c(C)n2C(=O)c1ccc(Cl)cc1"
numeric_value = 928.5

[[record]]
molecule = "CN/C(=N/CCSCc1nc[nH]c1C)NC#N"
numeric_value = 9475.2


[a] CC(=O)Nc1nnc(S(N)(=O)=O)s1 [compound 23, Acetazolamide]
[b] CCn1cc(C(=O)O)c(=O)c2cc(F)c(N3CCNCC3)cc21
[c] NC(=O)N1c2ccccc2C=Cc2ccccc21 [compound 22, Carbamazepine]
[d] CCS(=O)(=O)CCn1c([N+](=O)[O-])cnc1C
[e] O=C1NC(=O)C(c2ccccc2)(c2ccccc2)N1
Query: Hi! Can you put these in order of Dissolved amount, lowest number first? Rank the items, then write their labels in that order.
Reply: e, c, b, a, d

----------
- experiment: Dissolution test of poorly-soluble substances using 2nd fluid for disintegration test (pH 6.8) of the Japanese Pharmacopoeia
- Assay type: physicochemical
- run parameters: 2nd fluid for disintegration test; elution time 360 min
measured attribute: Dissolved amount (µg/mL)

Examples from the recorded data:
[[record]]
compound = "O=C(Nc1ccc(Cl)cc1)Nc1ccc(Cl)c(Cl)c1 [10-1, Trichlorocarbanilide]"
measured_attribute = "Dissolved amount"
u = "µg/mL"
numeric_value = 1.5

[[record]]
compound = "O=C1NC(=O)C(c2ccccc2)(c2ccccc2)N1"
measured_attribute = "Dissolved amount"
u = "µg/mL"
numeric_value = 32.5

[[record]]
compound = "O=[N+]([O-])O[C@H]1CO[C@H]2[C@@H]1OC[C@H]2O[N+](=O)[O-] [compound 30, Isosorbide Dinitrate]"
measured_attribute = "Dissolved amount"
u = "µg/mL"
numeric_value = 7148.8


[a] CC(C)(Sc1cc(C(C)(C)C)c(O)c(C(C)(C)C)c1)Sc1cc(C(C)(C)C)c(O)c(C(C)(C)C)c1
[b] CC(=O)O[C@]1(C(C)=O)CC[C@H]2[C@@H]3C=C(Cl)C4=CC(=O)CC[C@]4(C)[C@H]3CC[C@@]21C [Comparative Example 3-2, Chlormadinone acetate]
[c] NC(=O)N1c2ccccc2C=Cc2ccccc21 [compound 22, Carbamazepine]
[d] CCS(=O)(=O)CCn1c([N+](=O)[O-])cnc1C
Query: Rank entries according to their Dissolved amount, from the largest number down. Rank the items, then write their labels in that order.
Reply: d, c, a, b

----------
- experiment: Dissolution test of poorly-soluble substances using 2nd fluid for disintegration test (pH 6.8) of the Japanese Pharmacopoeia
- Assay type: physicochemical
- run parameters: 2nd fluid for disintegration test; elution time 60 min
measured attribute: Dissolved amount (µg/mL)

[[record]]
molecule = "CC(C)(Sc1cc(C(C)(C)C)c(O)c(C(C)(C)C)c1)Sc1cc(C(C)(C)C)c(O)c(C(C)(C)C)c1"
measured_attribute = "Dissolved amount"
numeric_value = 21.8

[[record]]
molecule = "CC(=O)O[C@]1(C(C)=O)CC[C@H]2[C@@H]3C=C(Cl)C4=CC(=O)CC[C@]4(C)[C@H]3CC[C@@]21C [Comparative Example 3-2, Chlormadinone acetate]"
measured_attribute = "Dissolved amount"
numeric_value = 1.0


[I] NC(N)=Nc1nc(CSCCC(N)=NS(N)(=O)=O)cs1
[II] Cn1c(=O)c2[nH]cnc2n(C)c1=O
Query: Lower Dissolved amount: I or II ? Returns: label corresponding to the selected item.
Reply: I
(I: 2667.9 µg/mL, II: 9096.5 µg/mL)

----------
- experiment: Dissolution test of poorly-soluble substances using 2nd fluid for disintegration test (pH 6.8) of the Japanese Pharmacopoeia
- Format: physicochemical
- run parameters: 2nd fluid for disintegration test; elution time 30 min
measured attribute: Dissolved amount (µg/mL)

[[record]]
compound = "CC[C@H]1OC(=O)[C@H](C)[C@@H](O[C@H]2C[C@@](C)(OC)[C@@H](O)[C@H](C)O2)[C@H](C)[C@@H](O[C@@H]2O[C@H](C)C[C@H](N(C)C)[C@H]2O)[C@](C)(O)C[C@@H](C)C(=O)[C@H](C)[C@@H](O)[C@]1(C)O [compound 28, Erythromycin]"
measured_attribute = "Dissolved amount"
numeric_value = 5103.6


[A] O=C(Nc1ccc(Cl)cc1)Nc1ccc(Cl)c(Cl)c1 [10-1, Trichlorocarbanilide]
[B] NC(=O)N1c2ccccc2C=Cc2ccccc21 [compound 22, Carbamazepine]
Query: Lower Dissolved amount: A or B ? Returns: label corresponding to the selected item.
Reply: A

----------
- experiment: Dissolution test of poorly-soluble substances using distilled water
- Format: physicochemical
- run parameters: water; elution time 10 min
measured attribute: Dissolved amount (µg/mL)

Examples from the recorded data:
[[record]]
compound = "CC(=O)SC[C@@H](C)C(=O)N1CCC[C@H]1C(=O)N[C@@H](Cc1ccccc1)C(=O)O"
measured_attribute = "Dissolved amount"
u = "µg/mL"
numeric_value = 805.6

[[record]]
compound = "CC[C@H]1OC(=O)[C@H](C)[C@@H](O[C@H]2C[C@@](C)(OC)[C@@H](O)[C@H](C)O2)[C@H](C)[C@@H](O[C@@H]2O[C@H](C)C[C@H](N(C)C)[C@H]2O)[C@](C)(O)C[C@@H](C)C(=O)[C@H](C)[C@@H](O)[C@]1(C)O"
measured_attribute = "Dissolved amount"
u = "µg/mL"
numeric_value = 861.6

[[record]]
compound = "CC(C)(Sc1cc(C(C)(C)C)c(O)c(C(C)(C)C)c1)Sc1cc(C(C)(C)C)c(O)c(C(C)(C)C)c1"
measured_attribute = "Dissolved amount"
u = "µg/mL"
numeric_value = 3.7

[[record]]
compound = "NC(N)=Nc1nc(CSCCC(N)=NS(N)(=O)=O)cs1"
measured_attribute = "Dissolved amount"
u = "µg/mL"
numeric_value = 1502.6

[[record]]
compound = "CC(=O)O[C@]1(C(C)=O)CC[C@H]2[C@@H]3C=C(Cl)C4=CC(=O)CC[C@]4(C)[C@H]3CC[C@@]21C [Comparative Example 3-2, Chlormadinone acetate]"
measured_attribute = "Dissolved amount"
u = "µg/mL"
numeric_value = 0.7


[a] Cn1c(=O)c2[nH]cnc2n(C)c1=O
[b] CC(=O)Nc1nnc(S(N)(=O)=O)s1 [compound 23, Acetazolamide]
Query: Lower Dissolved amount: a or b ? Returns: label corresponding to the selected item.
Reply: b
